tested on: MOLT-4 leukemia; test: NCI tumour cell line growth inhibition, 48 h; in the data active = GI50 below about 0.43 µM; inactive = the rest
Tick one outcome: active, inactive

For this compound, state the assay outcome: CC(C)(C)c1nnc2n(c1=O)N=CC(c1ccc(Br)cc1)S2 (centres undefined)
inactive

Recorded call for C1C[OH+]CC[OH+]CC[OH+]CC[OH+]CC[OH+]CC[OH+]1.[Cl-].[Ta+5] ?
inactive

Call for entry COC(=O)[C@H](Cc1ccccc1)NC(=O)[C@@H](OC)[C@@H]1Cc2cc3cc(OC4CC(OC5CC(O)C(O)C(C)O5)C(O)C(C)O4)c(C)c(O)c3c(O)c2C(=O)[C@H]1OC1CC(OC2CC(OC3CC(C)(O)C(O)C(C)O3)C(O)C(C)O2)C(O)C(C)O1 (some centres undefined) :
active

Record lookup: outcome of this test for Cc1ccccc1NC(=O)c1sc2nc3c(cc2c1N)C(=O)CCC3 ?
inactive

Dear all, I need the recorded test outcome for CC12CCC(O)CC1CCC1C2CCC2(C)C(C3=CC(=O)OC3)CCC12 (centres undefined) , thank you.
inactive

How did this test come out for CC(C)(C)n1cc(-c2ccnc(NCCNS(=O)(=O)c3cccc4ccccc34)c2)c(-c2cccc(F)c2)n1 ?
inactive

====

tested on: UACC-62 melanoma; assay: NCI tumour cell line growth inhibition, 48 h
assay-readout: TGI

{"compound": "Cc1ccsc1/C=N/Nc1ccccn1", "TGI": "> 100 µM"}
{"compound": "OC1(c2ccc(Cl)cc2)c2ccccc2C2=NCc3ccccc3CN21 (centres undefined)", "TGI": "26.7 µM"}
{"compound": "O=c1c2cccnc2ncn1CCCN1CCOCC1", "TGI": "> 100 µM"}
{"compound": "O=C1NC(=S)NC(=O)C1=Cc1ccc2ccccc2n1", "TGI": "> 100 µM"}
{"compound": "OC(C(=Nc1ccccc1)c1ccccc1)c1ccccc1 (centres undefined)", "TGI": "15 µM"}

Each compound below has a reported value. Please supply its TGI.
1. N#Cc1c(-c2ccccc2)cc(-c2ccccc2)n(C2OC(CO)C(O)C(O)C2O)c1=O (centres undefined)
2. C1C[OH+]CC[OH+]CC[OH+]CC[OH+]CC[OH+]CC[OH+]1.[Cl-].[Ta+5]

["> 100 µM", "> 100 µM"]

Batch request: TGI per item, same order as input.
1. C=CCC(C)(C(=O)NCCC)C(=O)c1ccccc1O (centres undefined)
2. Cc1[nH]c(=O)[nH]c(=O)c1C(=O)N(CCO)Cc1ccccc1

1: > 100 µM; 2: > 100 µM

====

system: OVCAR-3 ovarian; assay: NCI tumour cell line growth inhibition, 48 h
Give measured TGI for each item. Keep answers brief.
Give bare numbers, in µM.

{"compound": "CC(C)[C@@H](CS(=O)(=O)C(C)C)N1C(=O)[C@@](C)(CC(=O)O)C[C@H](c2cccc(Cl)c2)[C@H]1c1ccc(Cl)cc1", "TGI, µM": 33}
{"compound": "COc1cccc(C2C(C#N)=C(N)Oc3cc(OC)ccc32)c1 (stereo not given)", "TGI, µM": 1.18}
{"compound": "CCCCNCC(O)c1cc(-c2ccc(C(F)(F)F)cc2)nc(-c2ccc(C(F)(F)F)cc2)c1 (stereo not given)", "TGI, µM": 3.66}

Indicate the recorded TGI value for this compound: COc1cc(-c2coc3c(OC)c(OC4OC(COC5OC(C)C(O)C(O)C5O)C(O)C(O)C4O)c(OC)c(O)c3c2=O)cc(C)c1O (stereo not given)
47.2
